TEST TARGET: HRgpA-6H (Porphyromonas gingivalis) (UniProt P28784)
MEASUREMENT DESCRIPTION: ELISA on coated HRgpA-6H, OD relative to parental Fab
MEASUREMENT KIND: Ratio OD(Variant)/OD(WT) (fold)
Numbers only, in fold.

Solved cases below.
KB001 mouse Fab variant VL L55H (Fab, V domains shown) VH: EVQLKQSGPGLVAPSQSLSITCTVSGFSLSIYSVHWVRQPPGKGLEWLGMIWGGGSSDYNSALKSRLSISKDNSKSQVFLKMNSLQTDDTAMYYCARNGNFYAMDYWGQGTSVTVSS VL: QIVLTQSPAIMSASLGERVTMTCTASSSVSSSFLHWYQQKPGSSPQLWIYSTSNHASGVPARFSGSGSGTSYSLTISSMEAEDAATYYCHQYHHSPYIYTFGGGTKLEIK
0.817
KB001 mouse Fab variant VL S95H (Fab, V domains shown) VH: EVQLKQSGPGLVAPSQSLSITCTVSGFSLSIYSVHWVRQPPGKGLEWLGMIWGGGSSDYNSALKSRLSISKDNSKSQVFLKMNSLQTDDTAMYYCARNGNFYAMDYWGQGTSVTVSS VL: QIVLTQSPAIMSASLGERVTMTCTASSSVSSSFLHWYQQKPGSSPQLWIYSTSNLASGVPARFSGSGSGTSYSLTISSMEAEDAATYYCHQYHHHPYIYTFGGGTKLEIK
0.871

Batch: Ratio OD(Variant)/OD(WT) for all items listed.
1. KB001 mouse Fab variant VL H93N (Fab, V domains shown) VH: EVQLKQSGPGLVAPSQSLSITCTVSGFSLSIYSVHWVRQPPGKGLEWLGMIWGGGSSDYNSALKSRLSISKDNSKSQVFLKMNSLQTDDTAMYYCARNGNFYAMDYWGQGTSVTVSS VL: QIVLTQSPAIMSASLGERVTMTCTASSSVSSSFLHWYQQKPGSSPQLWIYSTSNLASGVPARFSGSGSGTSYSLTISSMEAEDAATYYCHQYNHSPYIYTFGGGTKLEIK
2. KB001 mouse Fab variant VL S57N (Fab, V domains shown) VH: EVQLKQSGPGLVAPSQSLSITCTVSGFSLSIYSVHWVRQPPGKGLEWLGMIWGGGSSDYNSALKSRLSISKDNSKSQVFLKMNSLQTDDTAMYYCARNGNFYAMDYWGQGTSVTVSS VL: QIVLTQSPAIMSASLGERVTMTCTASSSVSSSFLHWYQQKPGSSPQLWIYSTSNLANGVPARFSGSGSGTSYSLTISSMEAEDAATYYCHQYHHSPYIYTFGGGTKLEIK
3. KB001 mouse Fab variant VL Y97Q (Fab, V domains shown) VH: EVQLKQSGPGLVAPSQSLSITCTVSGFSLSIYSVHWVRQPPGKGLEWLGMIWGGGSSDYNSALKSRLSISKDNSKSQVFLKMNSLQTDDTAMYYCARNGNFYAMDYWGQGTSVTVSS VL: QIVLTQSPAIMSASLGERVTMTCTASSSVSSSFLHWYQQKPGSSPQLWIYSTSNLASGVPARFSGSGSGTSYSLTISSMEAEDAATYYCHQYHHSPQIYTFGGGTKLEIK

-- reply
[0.91, 0.997, 0.871]

The measurements presented in this section are drawn from patent US20240400654A1.
